Test system: SF-539
ASSAY PROCEDURE: Growth inhibition of human SF-539 cells assessed as cell growth at 10 uM incubated for 48 hrs by sulforhodamine B assay relative to control
Assay type: functional
CONDITION NOTES: read-out: Activity
PROPERTY MEASURED: growth at 10 µM (%)
Expressed in %, but write only the number.

These solved cases illustrate the format of a correct answer.
# SMILES NOTATION, UNIT STRING, growth at 10 µM
rows = [
    ("CC(=O)c1ccc2c(N)c(C(=O)Nc3ccccc3)sc2n1", "%", 97),
    ("COc1ccc(-c2ccn(S(=O)(=O)c3ccc(C)cc3)n2)cc1", "%", 97),
    ("CC(=O)c1cccc(NC(=O)c2sc3nc4c(cc3c2N)C(=O)CCC4)c1", "%", 101),
    ("Cc1ccc(S(=O)(=O)n2ccc(-c3ccc(OCCCF)cc3)n2)cc1", "%", 95.2),
]

Requested read-out: growth at 10 µM. Entry: Nc1c(C(=O)Nc2ccccc2)sc2nc3c(cc12)CN(Cc1ccccc1)CC3
9

Let us now turn to CC(=O)Nc1ccc(S(=O)(=O)n2ccc(-c3ccc4c(c3)CCC(C)(C)O4)n2)cc1
73.8

Item: CC1(C)CCc2cc(-c3ccn(S(=O)(=O)c4ccc(Cl)cc4Cl)n3)ccc2O1
103

What about COc1ccc(S(=O)(=O)n2ccc(-c3ccc4c(c3)CCC(C)(C)O4)n2)cc1OC ?
97.2

Please give the result for CC1(C)CCc2cc(-c3ccn(S(=O)(=O)c4ccc(C(F)(F)F)cc4)n3)ccc2O1 too.
94.6

How about COc1ccc(-c2ccn(S(=O)(=O)c3ccc(OC)cc3)n2)cc1 ?
87.3

----------
# Lookup of reported GI50 keyed by entry
Test system: SF-268
ASSAY PROCEDURE: Growth inhibition of human SF-268 cells incubated for 48 hrs by sulforhodamine B assay
Format: functional
Numbers only; they are read as µM.

# SMILES NOTATION, GI50, µM
measured = [
    ("Nc1c(C(=O)Nc2ccccc2)sc2nc3c(cc12)CN(Cc1ccccc1)CC3", 5.62),
    ("CCc1ccccc1NC(=O)c1sc2nc3c(cc2c1N)C(=O)CCC3", 10.1),
    ("Cc1cccc(NC(=O)c2sc3nc4c(cc3c2N)C(=O)CCC4)c1", 1.54),
]

What does the record list as GI50 for Cc1ccc(NC(=O)c2sc3nc4c(cc3c2N)C(=O)CCC4)cc1C ?
3.07

Okay, and COc1cccc(NC(=O)c2sc3nc4c(cc3c2N)CN(Cc2ccccc2)CC4)c1 ?
3.66

Now this one: Cc1cc(C)c(NC(=O)c2sc3nc4c(cc3c2N)CN(Cc2ccccc2)CC4)c(C)c1
6.93

Proceed to CCc1cccc(C)c1NC(=O)c1sc2nc3c(cc2c1N)C(=O)CCC3
3.04

Here is the next compound: CN1CCc2nc3sc(C(N)=O)c(N)c3c(-c3cccs3)c2C1
3.85

----------
Some compounds, each annotated with its measured growth at 10 µM.
Test system: SK-OV-3
ASSAY PROCEDURE: Growth inhibition of human SK-OV-3 cells assessed as cell growth at 10 uM incubated for 48 hrs by sulforhodamine B assay relative to control
Format: functional
CONDITION NOTES: read-out: Activity
# output: bare number, implied unit %

Use the examples below as a reference point.
# SMILES NOTATION, PROPERTY MEASURED, UNIT STRING, RECORDED MEASUREMENT
rows = [
    ("CCc1ccccc1NC(=O)c1sc2nc3c(cc2c1N)C(=O)CCC3", "growth at 10 µM", "%", 30),
    ("Cc1cc(C)c(NC(=O)c2sc3nc4c(cc3c2N)CN(Cc2ccccc2)CC4)c(C)c1", "growth at 10 µM", "%", 36),
    ("Nc1c(C(=O)Nc2ccccc2)sc2nc3c(cc12)CN(Cc1ccccc1)CC3", "growth at 10 µM", "%", 12),
    ("COc1cccc(NC(=O)c2sc3nc4c(cc3c2N)CN(Cc2ccccc2)CC4)c1", "growth at 10 µM", "%", 11),
]

Give the measured growth at 10 µM of O=S(=O)(c1ccc(Br)cc1)n1ccc(-c2ccc(OCCCF)cc2)n1 .
106

Try this compound too: CN1CCc2nc3sc(C(N)=O)c(N)c3c(-c3cccs3)c2C1
15

Lookup Cc1ccc(NC(=O)c2sc3nc4c(cc3c2N)C(=O)CCC4)cc1C
4.9

Further, for CC(C)N1CCc2nc3sc(C(=O)Nc4ccccc4)c(N)c3cc2C1 ?
113

----------
Entries and their GI50
Tested on: 786-0
ASSAY PROCEDURE: Growth inhibition of human 786-0 cells incubated for 48 hrs by sulforhodamine B assay
Assay type: functional
Report the value in nM with no unit label.

# SMILES NOTATION, GI50 / nM
records = [
    ("CCc1cccc(C)c1NC(=O)c1sc2nc3c(cc2c1N)C(=O)CCC3", 542),
    ("CCc1ccccc1NC(=O)c1sc2nc3c(cc2c1N)C(=O)CCC3", 578),
    ("Cc1ccc(NC(=O)c2sc3nc4c(cc3c2N)C(=O)CCC4)cc1C", 614),
    ("Cc1cccc(NC(=O)c2sc3nc4c(cc3c2N)C(=O)CCC4)c1", 404),
]

Now look at this one.
I'd like to know its GI50. The molecule in question is COc1cccc(NC(=O)c2sc3nc4c(cc3c2N)CN(Cc2ccccc2)CC4)c1
3610

----------
Test system: SF-539
ASSAY PROCEDURE: Growth inhibition of human SF-539 cells assessed as cell growth at 10 uM incubated for 48 hrs by sulforhodamine B assay relative to control
Assay type: functional
CONDITION NOTES: read-out: Activity
PROPERTY MEASURED: growth at 10 µM

// below: answered molecules
# SMILES NOTATION, growth at 10 µM
rows = [
    ("O=S(=O)(c1ccc(Br)cc1)n1ccc(-c2ccc(OCCCF)cc2)n1", "90.2%"),
    ("O=S(=O)(c1ccccc1)n1ccc(-c2ccc3c(c2)CCO3)n1", "86.7%"),
]

Can you look up the measured growth at 10 µM of CC1(C)CCc2cc(-c3ccn(S(=O)(=O)c4ccccc4)n3)ccc2O1 for me?
92.8%

Query Cc1cc(C)c(NC(=O)c2sc3nc4c(cc3c2N)CN(Cc2ccccc2)CC4)c(C)c1 next
-11%

Also check CC(C)N1CCc2nc3sc(C(=O)Nc4ccccc4)c(N)c3cc2C1
93%

Lookup Cc1cc(C)cc(S(=O)(=O)n2ccc(-c3ccc4c(c3)CCC(C)(C)O4)n2)c1
99.8%

Now consider CCc1cccc(C)c1NC(=O)c1sc2nc3c(cc2c1N)C(=O)CCC3 and answer again.
-27%

Entry to check: CCc1ccccc1NC(=O)c1sc2nc3c(cc2c1N)C(=O)CCC3
-17%

----------
Item-by-item account of growth at 10 µM
Tested on: HL-60(TB)
ASSAY PROCEDURE: Growth inhibition of human HL-60(TB) cells assessed as cell growth at 10 uM incubated for 48 hrs by sulforhodamine B assay relative to control
Assay type: functional
CONDITION NOTES: read-out: Activity

# SMILES NOTATION, growth at 10 µM
data = [
    ("CC(=O)c1cccc(NC(=O)c2sc3nc4c(cc3c2N)C(=O)CCC4)c1", "102%"),
    ("O=S(=O)(c1ccccc1)n1ccc(-c2ccc3c(c2)CCO3)n1", "109%"),
    ("CC(=O)Nc1ccc(S(=O)(=O)n2ccc(-c3ccc4c(c3)CCC(C)(C)O4)n2)cc1", "91.9%"),
]

I'd like to know its growth at 10 µM. The compound in question is COc1ccc(S(=O)(=O)n2ccc(-c3ccc(OC(C)C)cc3)n2)cc1
90.3%

Please do the same for Cc1ccc(NC(=O)c2sc3nc4c(cc3c2N)C(=O)CCC4)cc1C as well.
-21%

----------
Test system: SF-539
ASSAY PROCEDURE: Growth inhibition of human SF-539 cells assessed as cell growth at 10 uM incubated for 48 hrs by sulforhodamine B assay relative to control
Type: functional
CONDITION NOTES: read-out: Activity
growth at 10 µM values by entry
Put your answer as a value accompanied by its unit after it.

# SMILES NOTATION, ASSAYED SYSTEM, growth at 10 µM
measured = [
    ("Cc1cccc(NC(=O)c2sc3nc4c(cc3c2N)C(=O)CCC4)c1", "SF-539", "-61%"),
]

Now take the following molecule into account.
Fill in: growth at 10 µM of CC1(C)CCc2cc(-c3ccn(S(=O)(=O)c4ccc(C(C)(C)C)cc4)n3)ccc2O1 is ___
91.2%

----------
Tested on: M14
ASSAY PROCEDURE: Growth inhibition of human M14 cells assessed as cell growth at 1 uM incubated for 48 hrs by sulforhodamine B assay relative to control
Format: functional
CONDITION NOTES: read-out: Activity
Measured growth at 1 µM accompanies every entry in the list below.

Before answering, review these 5 worked examples.
# SMILES NOTATION, RECORDED MEASUREMENT
rows = [
    ("CCc1cccc(C)c1NC(=O)c1sc2nc3c(cc2c1N)C(=O)CCC3", "17%"),
    ("Cc1ccc(NC(=O)c2sc3nc4c(cc3c2N)C(=O)CCC4)cc1C", "22%"),
    ("CN1CCc2nc3sc(C(N)=O)c(N)c3c(-c3cccs3)c2C1", "115%"),
    ("Cc1cc(C)c(NC(=O)c2sc3nc4c(cc3c2N)CN(Cc2ccccc2)CC4)c(C)c1", "78%"),
    ("Cc1cccc(NC(=O)c2sc3nc4c(cc3c2N)C(=O)CCC4)c1", "11%"),
]

Need growth at 1 µM, item COc1cccc(NC(=O)c2sc3nc4c(cc3c2N)CN(Cc2ccccc2)CC4)c1
57%

// repeat for CCc1ccccc1NC(=O)c1sc2nc3c(cc2c1N)C(=O)CCC3 and report
17%

Please answer likewise for Nc1c(C(=O)Nc2ccccc2)sc2nc3c(cc12)CN(Cc1ccccc1)CC3
91%
